Catalogue of In vitro activity (%) compared with native peptide, vs GLP-1 readings, one per entry.
molecular target: human GLP-1 receptor (human, UniProt P43220 24-463); experiment: cell-based or functional assay
Bridge positions count the residues as written; N and C are the ends. Square brackets hold non-standard residues; d marks the D form. Ends that are not written are not given here. * marks the point of attachment. Acetyl(2-(4-imidazolyl)) = O=C(Cc1c[nH]cn1)*; Aib = CC(C)(N)C(=O)O
readout: In vitro activity (%) compared with native peptide, vs GLP-1

INSERT INTO results (binder, valueobserved) VALUES
  ('[Acetyl(2-(4-imidazolyl))]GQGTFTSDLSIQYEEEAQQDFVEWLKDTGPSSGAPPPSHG (not fully specified) [triple agonist of SEQ ID NO: 20]', '< 0.1%'),
  ('[Acetyl(2-(4-imidazolyl))]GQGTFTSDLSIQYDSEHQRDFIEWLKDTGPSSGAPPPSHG (not fully specified) [triple agonist of SEQ ID NO: 19]', '< 0.1%'),
  ('H[Aib]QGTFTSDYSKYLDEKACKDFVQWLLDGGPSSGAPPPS (bridge 16-20; not fully specified) [triple agonist of SEQ ID NO: 32]', '151%'),
  ('[Acetyl(2-(4-imidazolyl))]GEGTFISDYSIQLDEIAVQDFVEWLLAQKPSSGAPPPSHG [triple agonist of SEQ ID NO: 13]', '< 0.1%'),
  ('Y[Aib]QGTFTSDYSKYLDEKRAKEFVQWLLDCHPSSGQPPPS (bridge 16-20) [triple agonist of SEQ ID NO: 97]', '10.5%');
